Study Target: Tumour suppressor p53/oncoprotein Mdm2 (Homo sapiens, UniProt Q00987)
Sequence (P04637 whole entry): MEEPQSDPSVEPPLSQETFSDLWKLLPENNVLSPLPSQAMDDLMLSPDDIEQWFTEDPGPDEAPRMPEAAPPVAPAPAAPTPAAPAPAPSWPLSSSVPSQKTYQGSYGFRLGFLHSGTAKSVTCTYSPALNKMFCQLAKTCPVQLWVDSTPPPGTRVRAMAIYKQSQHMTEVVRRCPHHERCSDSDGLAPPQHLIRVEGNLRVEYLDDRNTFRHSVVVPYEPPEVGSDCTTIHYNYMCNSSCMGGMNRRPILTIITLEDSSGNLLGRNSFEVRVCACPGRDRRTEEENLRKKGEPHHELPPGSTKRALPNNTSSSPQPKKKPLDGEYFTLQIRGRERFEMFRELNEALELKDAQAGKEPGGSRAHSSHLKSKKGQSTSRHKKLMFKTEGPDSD
Sequence (Q00987 whole entry): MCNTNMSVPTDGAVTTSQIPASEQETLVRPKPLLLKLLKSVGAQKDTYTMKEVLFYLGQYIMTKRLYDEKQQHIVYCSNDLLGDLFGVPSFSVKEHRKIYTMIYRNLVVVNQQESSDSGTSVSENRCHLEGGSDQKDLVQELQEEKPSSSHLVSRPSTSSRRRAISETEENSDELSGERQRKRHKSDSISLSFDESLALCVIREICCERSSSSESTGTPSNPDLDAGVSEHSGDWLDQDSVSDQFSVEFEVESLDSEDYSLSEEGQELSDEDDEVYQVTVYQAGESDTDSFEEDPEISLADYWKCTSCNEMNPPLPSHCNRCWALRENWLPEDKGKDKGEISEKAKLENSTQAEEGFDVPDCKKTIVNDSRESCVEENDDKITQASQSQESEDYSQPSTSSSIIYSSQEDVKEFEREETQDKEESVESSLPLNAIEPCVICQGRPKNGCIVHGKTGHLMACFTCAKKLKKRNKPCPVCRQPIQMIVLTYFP
Procedure Details: Inhibition of MDM2/p53 (unknown origin) interaction by fluorescence polarization assay
pKi: −log10 of the molar value.
In this section we review reported pKi values for a set of compounds.
Quantity Kind: pKi

| Record Smiles | Quantity Kind | Inequality Symbol | Value Measured |
| --- | --- | --- | --- |
| COc1cc(C(=O)O)ccc1N1CN2[C@@H](CC(C)(C)C)[C@@]3(CNc4ccc(Cl)cc43)[C@@H](c3ccc(Cl)cc3)[C@@H]2C1=O | pKi | < | 4.57 |
| CCC(C)(CC)C[C@@H]1N2CN(c3ccc(C(=O)O)cc3OC)C(=O)[C@H]2[C@H](c2cccc(Cl)c2)[C@]12CNc1cc(Cl)ccc12 | pKi | = | 8.92 |
| COc1cc(C(=O)O)ccc1N1CN2[C@@H](CC(C)(C)C)[C@@]3(CNc4ccc(Cl)cc43)[C@@H](c3ccccc3Cl)[C@@H]2C1=O | pKi | = | 5.96 |
| COc1cc(C(=O)O)ccc1N1CN2[C@@H](CC(C)(C)C)[C@@]3(CNc4cc(Cl)ccc43)[C@@H](c3ccc(Cl)cc3)[C@@H]2C1=O | pKi | = | 7.55 |

This collection of values is drawn from ChEMBL document CHEMBL5512651.
